The reported measurements were obtained from ChEMBL document CHEMBL5108037.

biological target: E3 ubiquitin-protein ligase Mdm2 (Homo sapiens)
Sequence (Q00987 whole entry): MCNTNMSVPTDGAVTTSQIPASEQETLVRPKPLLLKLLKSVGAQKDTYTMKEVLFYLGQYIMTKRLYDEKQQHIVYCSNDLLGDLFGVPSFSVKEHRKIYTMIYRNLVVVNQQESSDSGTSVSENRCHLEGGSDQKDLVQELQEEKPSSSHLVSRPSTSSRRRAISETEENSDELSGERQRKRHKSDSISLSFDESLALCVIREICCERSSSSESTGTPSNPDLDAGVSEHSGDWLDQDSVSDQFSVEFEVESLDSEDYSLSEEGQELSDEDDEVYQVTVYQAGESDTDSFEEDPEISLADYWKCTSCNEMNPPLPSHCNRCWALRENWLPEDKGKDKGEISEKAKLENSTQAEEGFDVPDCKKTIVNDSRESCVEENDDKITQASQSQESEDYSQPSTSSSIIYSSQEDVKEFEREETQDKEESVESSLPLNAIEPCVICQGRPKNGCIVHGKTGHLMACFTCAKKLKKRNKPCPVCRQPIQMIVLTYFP
pIC50: −log10 of the molar value.

Structure string: CN1CCC(=O)NCCSCCS(=O)(=O)CCN(Cc2ccc(C#N)cc2)CC(=O)N[C@@H](Cc2cc3ccc(Cl)cc3[nH]2)C1=O
Target: E3 ubiquitin-protein ligase Mdm2 (Homo sapiens)
pIC50: 6.22
